tested on: E. faecalis MMX 847 Macrolide-Resistant; assay: MIC determination; assay type: cell-based; settings: Enterococcus faecalis; E. faecalis MMX 847 Macrolide-Resistant (MacRes); read-out: MIC
Parameter: MIC. Scope: all listed entries.

| COMPOUND | SYSTEM | MEASURED |
| --- | --- | --- |
| CSC1O[C@H]([C@H](NC(=O)[C@H]2NC[C@@H]3C=C(c4ccccc4F)CCO[C@@H]23)[C@H](C)Cl)C(O)[C@@H](O)[C@H]1O (stereo partly drawn) | E. faecalis MMX 847 Macrolide-Resistant | > 64 µg/mL |

Task: Need MIC of CSC1O[C@H]([C@H](NC(=O)[C@H]2NC[C@@H]3C=C(c4cccc(F)c4)CCO[C@@H]23)[C@H](C)Cl)C(O)[C@@H](O)[C@H]1O (stereo partly drawn) , thanks.
Output: > 64 µg/mL

Task: Need MIC of CSC1O[C@H]([C@H](NC(=O)[C@H]2NC[C@@H]3C[C@H]4C[C@H]4CO[C@H]32)[C@H](C)Cl)C(O)C(O)[C@H]1O (stereo in doubt) , thanks.
Output: > 64 µg/mL

Task: Need MIC of CSC1O[C@H]([C@H](NC(=O)[C@H]2NC[C@@H]3C=C(c4ccc(F)cc4F)CCO[C@@H]23)[C@H](C)Cl)C(O)[C@@H](O)[C@H]1O (stereo partly drawn) , thanks.
Output: > 64 µg/mL

Task: Need MIC of CSC1O[C@H]([C@H](NC(=O)[C@H]2NC[C@@H]3C[C@@H](c4ccc(C(F)(F)F)cc4)CCO[C@H]32)[C@H](C)Cl)C(O)[C@@H](O)[C@H]1O (stereo partly drawn) , thanks.
Output: 64 µg/mL

Task: Need MIC of CSC1O[C@H]([C@H](NC(=O)[C@H]2NC[C@@H]3C=C(c4cc(F)cc(F)c4)CCO[C@@H]23)[C@H](C)Cl)C(O)[C@@H](O)[C@H]1O (stereo partly drawn) , thanks.
Output: > 64 µg/mL

###

tested on: S. pyogenes MMX 946 Macrolide-Resistant; test: MIC determination; assay type: cell-based; details: Streptococcus pyogenes; S. pyogenes MMX 946 Macrolide-Resistant (MacRes); read-out: MIC
Parameter: MIC. Scope: all listed entries.
Kindly answer with a numeric value in µg/mL, unit omitted.

Use the examples below as a reference point.
| MOLECULE | READING_UNIT | MEASURED |
| --- | --- | --- |
| CSC1O[C@H]([C@H](NC(=O)[C@H]2NC[C@@H]3C=C(c4ccc(C(F)(F)F)cc4)CCO[C@@H]23)[C@H](C)Cl)C(O)[C@@H](O)[C@H]1O (stereo partly drawn) [FSA-507053] | µg/mL | 32 |
| CSC1O[C@H]([C@H](NC(=O)[C@H]2NC[C@@H]3CC=CCO[C@H]32)[C@H](C)Sc2ccc(-c3cccnc3)cc2)C(O)[C@@H](O)[C@H]1O (stereo partly drawn) [FSA-213061] | µg/mL | 4 |
| CSC1O[C@H]([C@H](NC(=O)[C@H]2NC[C@@H]3CC(F)(F)CCO[C@H]32)[C@H](C)Cl)C(O)[C@@H](O)[C@H]1O (stereo partly drawn) [FSA-24036] | µg/mL | 4 |

Task: Need MIC of CSC1O[C@H]([C@H](NC(=O)[C@H]2NC[C@@H]3CC=CCO[C@H]32)[C@H](C)Sc2ccc(-c3cncnc3)cc2)C(O)[C@@H](O)[C@H]1O (stereo partly drawn) [FSA-27049] , thanks.
Output: 2

###

system: E. faecalis ATCC 29212; assay: MIC determination; type: cell-based; details: Enterococcus faecalis, ATCC29212
MEASURED_PARAMETER: MIC (µg/mL)
Kindly answer with a numeric value in µg/mL, unit omitted.

| COMPOUND | MIC / µg/mL |
| --- | --- |
| COc1ccc([C@H]2CCO[C@@H]3[C@H](CN[C@@H]3C(=O)N[C@H]([C@H](C)Cl)[C@H]3OC(SC)[C@H](O)[C@H](O)C3O)C2)cc1 (some centres unmarked) [FSA-512080b] | 0.5 |
| CSC1O[C@H]([C@H](NC(=O)[C@H]2NC[C@@H]3CC(c4ccc(-c5ccccc5)cc4)=CCO[C@H]32)[C@H](C)Cl)C(O)[C@@H](O)[C@H]1O (some centres unmarked) | 8 |
| CSC1O[C@H]([C@H](NC(=O)[C@@H]2[C@@H]3OCC=CC[C@H]3CN2C)[C@H](C)Sc2ccc(-c3cncnc3)cc2)C(O)[C@@H](O)[C@H]1O (some centres unmarked) | 16 |
| CSC1O[C@H]([C@H](NC(=O)[C@H]2NC[C@@H]3CC=CCO[C@H]32)[C@H](C)Sc2ccc(-c3cncnc3)cc2)C(O)[C@@H](O)[C@H]1O (some centres unmarked) | 64 |
| CSC1O[C@H]([C@H](NC(=O)[C@H]2NC[C@@H]3C[C@@H](c4ccc(C#N)cc4)CCO[C@H]32)[C@H](C)Cl)C(O)[C@@H](O)[C@H]1O (some centres unmarked) [FSA-512081a] | 0.5 |
| CSC1O[C@H]([C@H](NC(=O)[C@H]2NC[C@@H]3CC=CCO[C@H]32)[C@H](C)Cl)C(O)[C@@H](O)[C@H]1O (some centres unmarked) | 16 |
| CSC1O[C@H]([C@H](NC(=O)[C@H]2NC[C@@H]3CC=CCO[C@@H]32)[C@H](C)Cl)C(O)[C@@H](O)[C@H]1O (some centres unmarked) | 32 |

Now for the compound whose MIC we want.
Task: Need MIC of CSC1O[C@H]([C@H](NC(=O)[C@H]2NC[C@@H]3C[C@H]4C[C@H]4CO[C@H]32)[C@H](C)Cl)C(O)C(O)[C@H]1O (stereo in doubt) , thanks.
Output: 16

###

Parameter: MIC. Scope: all listed entries.
system: S. pyogenes MMX 946 Macrolide-Resistant; experiment: MIC determination; type: cell-based; settings: Streptococcus pyogenes; S. pyogenes MMX 946 Macrolide-Resistant (MacRes); read-out: MIC
Kindly answer with a numeric value in mg/L, unit omitted.

| COMPOUND | MEASURED_PARAMETER | READING_UNIT | MEASURED |
| --- | --- | --- | --- |
| CSC1O[C@H]([C@H](NC(=O)[C@H]2NC[C@@H]3C[C@@H](c4ccc(F)cc4)CCO[C@H]32)[C@H](C)Cl)C(O)[C@@H](O)[C@H]1O (stereo partly shown) | MIC | mg/L | 4 |

Task: Request - read-out MIC | tested on S. pyogenes MMX 946 Macrolide-Resistant | compound CSC1O[C@H]([C@H](NC(=O)[C@@H]2[C@@H]3OCC=CC[C@H]3CN2C)[C@H](C)Sc2ccc(-c3cccnc3)cc2)C(O)[C@@H](O)[C@H]1O (stereo partly shown)
Output: 2

###

system: S. pyogenes MMX 946 Macrolide-Resistant; assay: MIC determination; assay type: cell-based; conditions: Streptococcus pyogenes; S. pyogenes MMX 946 Macrolide-Resistant (MacRes); read-out: MIC
Parameter: MIC. Scope: all listed entries.
Kindly answer with a numeric value in mg/L, unit omitted.

| MOLECULE | MEASURED_PARAMETER | MEASURED |
| --- | --- | --- |
| CSC1O[C@H]([C@H](NC(=O)[C@H]2NC[C@@H]3CC(c4ccc(C(F)(F)F)cc4)=CCO[C@H]32)[C@H](C)Cl)C(O)[C@@H](O)[C@H]1O (stereo partly drawn) | MIC | 32 |

Task: Need MIC of CSC1O[C@H]([C@H](NC(=O)[C@@H]2[C@@H]3OCC=CC[C@H]3CN2C)[C@H](C)Sc2ccc(-c3cncnc3)cc2)C(O)[C@@H](O)[C@H]1O (stereo partly drawn) , thanks.
Output: 2

Task: Need MIC of CSC1O[C@H]([C@H](NC(=O)[C@H]2NC[C@@H]3C[C@H]4C[C@H]4CO[C@H]32)[C@H](C)Cl)C(O)C(O)[C@H]1O (stereo in doubt) , thanks.
Output: 32

###

tested on: H. influenzae ATCC 49247; experiment: MIC determination; type: cell-based; conditions: Haemophilus influenzae, ATCC49247; H. influenzae ATCC 49247; read-out: MIC
Parameter: MIC. Scope: all listed entries.
Kindly answer with a numeric value in µg/mL, unit omitted.

| COMPOUND | READING_UNIT | MIC |
| --- | --- | --- |
| CSC1O[C@H]([C@H](NC(=O)[C@H]2NC[C@@H]3C=C(C#Cc4cccc(F)c4)CCO[C@@H]23)[C@H](C)Cl)C(O)[C@@H](O)[C@H]1O (stereo partly drawn) [FSA-510003] | µg/mL | 16 |

Task: Need MIC of CSC1O[C@H]([C@H](NC(=O)[C@H]2NC[C@@H]3C=CCO[C@@H]23)[C@H](C)Cl)C(O)[C@@H](O)[C@H]1O (stereo partly drawn) [FSA-24039] , thanks.
Output: 32

Task: Need MIC of CSC1O[C@H]([C@H](NC(=O)[C@H]2NC[C@@H]3C[C@@H](c4ccccc4F)CCO[C@H]32)[C@H](C)Cl)C(O)[C@@H](O)[C@H]1O (stereo partly drawn) [FSA-511100] , thanks.
Output: 64

Task: Need MIC of COc1ccc([C@H]2CCO[C@@H]3[C@H](CN[C@@H]3C(=O)N[C@H]([C@H](C)Cl)[C@H]3OC(SC)[C@H](O)[C@H](O)C3O)C2)cc1 (stereo partly drawn) [FSA-512080b] , thanks.
Output: 16

Task: Need MIC of CSC1O[C@H]([C@H](NC(=O)[C@@H]2[C@@H]3OCCCC[C@H]3CN2C)[C@H](C)Cl)C(O)C(O)[C@H]1O (stereo partly drawn) [FSA-24040] , thanks.
Output: 8

Task: Need MIC of CSC1O[C@H]([C@H](NC(=O)[C@H]2NC[C@@H]3C[C@@H](CCc4cccc(F)c4)CCO[C@H]32)[C@H](C)Cl)C(O)[C@@H](O)[C@H]1O (stereo partly drawn) [FSA-510022] , thanks.
Output: 1
